Entry source: patent US20210214410A1

# target system: human interleukin 13 receptor alpha 1 (IL-13Rα1), biotinylated ectodomain (human) (UniProt P78552)
# procedure details: SPR (Biacore T100), biotinylated receptor on SA chip, 1:1 kinetic fit
measured metric: koff (s⁻¹)
Note: unit s⁻¹ is implicit; provide only the numeric part.

Examples from the recorded data:
binder	measured metric	measured value
B6 (ligand, the sheet prints K at position 89 (same as wild type); also called IL-13 variant B6 (L10T, V18I, D87G, T88S, L101Y, K104R, K105T)) cytokine: PGPVPPSTATRELIEELINITQNQKAPLCNGSMVWSINLTAGMYCAALESLINVSGCSAIEKTQRMLSGFCPHKVSAGQFSSLHVRGSKIEVAQFVKDLLYHLRTLFREGQFN	koff	0.0082
IL-13 variant B4 (R11S, V18I, R86K, D87G, T88S, K89M, L101Y, K104R, K105T) (ligand, also called polypeptide B4) PGPVPPSTALSELIEELINITQNQKAPLCNGSMVWSINPTAGMYCAALESLINVSGCSAIEKTQRMLSGFCPHKVAAGQFSSLHDKGSMIEVAQFVKDLLYHLRTLFREGQFNHHHHHH	koff	0.024

q: Looking for the measured koff of A7 (ligand, also called IL-13 variant A7 (L10I, V18I, D87G, T88S, L101H, K104R, K105A)) cytokine: PGPVPPSTAIRELIEELINITQNQKAPLCNGSMVWSINLTAGMYCAALESLINVSGCSAIEKTQRMLSGFCPHKVSAGQFSSLHVRGSKIEVAQFVKDLLHHLRALFREGQFN , can you help?
a: 0.0034

q: Requested read-out: koff. Entry: A6 (ligand, also called IL-13 variant A6 (L10I, V18L, R86M, D87K, T88S, L101H, K104R, K105A)) cytokine: PGPVPPSTAIRELIEELLNITQNQKAPLCNGSMVWSINLTAGMYCAALESLINVSGCSAIEKTQRMLSGFCPHKVSAGQFSSLHVMKSKIEVAQFVKDLLHHLRALFREGQFN
a: 0.0033
